Listed compounds paired with reported TGI
- Tested on: SF-268 CNS
- Procedure text: NCI tumour cell line growth inhibition, 48 h

Compound: Cc1cc(NCCCCCCNc2cc(C)nc3cc(N(C)C)ccc23)c2ccc(N(C)C)cc2n1
TGI: > 100 µM

Compound: O=C1NC(=S)N/C1=C\c1ccc(Br)s1
TGI: > 100 µM

Compound: Cc1cc(Cl)ccc1Nc1nc(C(F)(F)F)ccc1C(=O)N/N=C/c1ccc(Cl)cc1
TGI: 10.1 µM

Compound: COC1OC(CBr)C(OC(=O)c2ccccc2)C(O)C1Br (configuration not stated)
TGI: > 100 µM

Compound: CCn1c(-c2ccc(N=NNc3ccc(-c4n[nH]c(=S)n4CC)cc3)cc2)n[nH]c1=S
TGI: 17.2 µM

Compound: CN1c2ccccc2N(C(=O)c2ccc(Cl)cc2)C(CC(=O)O)c2cccn21 (configuration not stated)
TGI: > 100 µM

Compound: O=S(Nc1ccccc1)c1cccc(Cl)c1 (configuration not stated)
TGI: > 100 µM

Compound: COc1ccc2c3c1O[C@H]1C(OC)C=CC4C(C2)N(Cc2cccs2)CCC341 (some centres not stated)
TGI: > 100 µM

Compound: O=S(=O)(Nc1ccc(Br)c(Cl)c1)c1ccc(-c2cnc(C3CC3)o2)cc1
TGI: 23.5 µM

Compound: COc1ccc(N=Cc2ccc(N(CCC#N)S(=O)(=O)c3ccccc3)cc2)cc1
TGI: > 100 µM

Compound: COC(=O)c1sc(=S)sc1SCc1ccc(CSc2sc(=S)sc2C(=O)OC)cc1
TGI: > 100 µM

Compound: COC1=CC(c2ccc[nH]2)=N/C1=C\c1[nH]c(C)c(C(=O)CCCCC(=O)NC(C)(C)C)c1C
TGI: 4.32 µM
